MEASURED_TARGET: NAD-dependent protein deacetylase sirtuin-1 (Homo sapiens)
Sequence (whole entry): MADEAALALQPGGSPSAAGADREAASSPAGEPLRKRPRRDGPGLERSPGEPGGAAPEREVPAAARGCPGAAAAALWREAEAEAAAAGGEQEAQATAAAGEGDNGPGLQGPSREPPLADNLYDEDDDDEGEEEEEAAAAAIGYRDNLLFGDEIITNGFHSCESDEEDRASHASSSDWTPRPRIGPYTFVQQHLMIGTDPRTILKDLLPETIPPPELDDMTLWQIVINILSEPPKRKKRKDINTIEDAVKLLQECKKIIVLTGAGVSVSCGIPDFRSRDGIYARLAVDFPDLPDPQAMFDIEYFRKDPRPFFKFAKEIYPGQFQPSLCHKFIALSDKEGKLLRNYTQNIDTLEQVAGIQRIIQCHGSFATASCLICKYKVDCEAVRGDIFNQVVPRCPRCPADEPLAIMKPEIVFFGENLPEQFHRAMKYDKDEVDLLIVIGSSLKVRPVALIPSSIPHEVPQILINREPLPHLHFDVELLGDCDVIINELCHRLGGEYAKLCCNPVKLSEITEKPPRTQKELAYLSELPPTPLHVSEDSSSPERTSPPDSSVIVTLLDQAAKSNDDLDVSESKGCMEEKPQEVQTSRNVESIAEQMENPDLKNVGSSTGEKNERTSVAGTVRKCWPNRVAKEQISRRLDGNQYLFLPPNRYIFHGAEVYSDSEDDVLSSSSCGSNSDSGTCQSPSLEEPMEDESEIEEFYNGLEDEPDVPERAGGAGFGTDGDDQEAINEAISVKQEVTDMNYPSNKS
TEST_PROTOCOL: Inhibition of human SIRT1 expressed in Escherichia coli at 50 uM after 1 hr by fluorescent biochemical assay
Calls of active or inactive are those of the source. The calls are words filed in the database; no cut-off is given here.
PROPERTY: inhibition

// solved cases for inhibition follow
>  <SMILES_ENTRY>
O=C(O)C1=CN(Cc2ccccc2)C=C(C(=O)O)C1c1ccccc1

>  <inhibition>
inactive

$$$$
>  <SMILES_ENTRY>
CCOC(=O)C1=CN(c2ccccc2)C=C(C(=O)OCC)C1c1ccccc1

>  <inhibition>
63.6%

$$$$
>  <SMILES_ENTRY>
NC(=O)C1=CN(c2ccccc2)C=C(C(N)=O)C1c1ccccc1

>  <inhibition>
89.1%

$$$$
>  <SMILES_ENTRY>
O=C(O)C1=CN(c2ccccc2)C=C(C(=O)O)C1c1ccccc1

>  <inhibition>
86.6%

$$$$
>  <SMILES_ENTRY>
CCOC(=O)C1=CN(Cc2ccccc2)C=C(C(=O)OCC)C1c1ccccc1

>  <inhibition>
inactive

$$$$
>  <SMILES_ENTRY>
NC(=O)C1=CN(Cc2ccccc2)C=C(C(N)=O)C1c1ccccc1

>  <inhibition>
inactive

$$$$

Read the next record carefully.
Q: Value wanted: inhibition (NAD-dependent protein deacetylase sirtuin-1 (Homo sapiens)) of entry CCOC(=O)C1=CN(CCc2ccccc2)C=C(C(=O)OCC)C1c1ccccc1
Result: 76.6%
